Value source: paper doi:10.1101/2024.03.05.583629

TEST TARGET: pT7_6His-AlfaTag-HOXD13 (human, UniProt P35453 263-343)
Sequence (P35453 263-343): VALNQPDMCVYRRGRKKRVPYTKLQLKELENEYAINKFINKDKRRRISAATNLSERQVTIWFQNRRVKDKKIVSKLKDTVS
PROTOCOL: PADIT-seq
CONDITION DETAILS: dsDNA, one strand shown
I'd be grateful if you could share measured binding signal for these entries.
The reply should be a number in log2FC, with the unit left off.

[ask] What value of binding signal has been recorded for this entry: CTCGAGGATATCAAGATCTGGCCTCGGCACCCTAAAAGGAACCTCTAGCTAGCCGACTCACTATAGGGATAATCGCCCTGAGCAAAGACC
[reply] 0.642

[ask] State the recorded binding signal for this entry: CTCGAGGATATCAAGATCTGGCCTCGGCACAGTAAAAGGAACCTCTAGCTAGCCGACTCACTATAGGGATAATCGCCCTGAGCAAAGACC
[reply] 1.94

[ask] Recorded binding signal for CTCGAGGATATCAAGATCTGGCCTCGGCCGCTTACGCGGAACCTCTAGCTAGCCGACTCACTATAGGGATAATCGCCCTGAGCAAAGACC , please?
[reply] -0.713

[ask] I'd like to know its binding signal. The sequence in question is CTCGAGGATATCAAGATCTGGCCTCGGCTTTTTAGCCGGAACCTCTAGCTAGCCGACTCACTATAGGGATAATCGCCCTGAGCAAAGACC
[reply] -0.442
